Assignment: determine reported pIC50 for the given compounds.
Tested on: NCI/ADR-RES
Test: Cytotoxicity against human NCI/ADR-RES cells
Assay type: functional, cell-based
pIC50: −log10 of the molar value.

Recorded pIC50, per entry:
# input # lookup: pIC50 of C=C(CCC(C)C)COC(=O)[C@H](O)C/C=C\C[C@@H]1O[C@@H]2/C=C/C/C=C/C(C)=C\[C@H]3O[C@@H](C/C=C/C=C/C(=O)O[C@H](C2)[C@@]1(C)CO)C[C@H](O)[C@H]3C [LASONOLIDE A]
# output 6.31

# input Follow-up item: CC1=C/[C@H]2O[C@@H](C/C=C/C=C/C(=O)O[C@@H]3C[C@@H](/C=C/C\C=C\1)O[C@@H](C/C=C\C[C@@H](O)C(=O)O)[C@]3(C)CO)C[C@H](O)[C@H]2C [LASONOLIDES F]
# output < 5.05

# input Another compound to look at: CC1=C/[C@H]2O[C@@H](C/C=C/C=C/C(=O)O[C@@H]3C[C@@H](/C=C/C\C=C\1)O[C@@H](C/C=C\CCO)[C@]3(C)CO)C[C@H](O)[C@H]2C [LASONOLIDE D]
# output < 5.05

# input Now the same for C=C(COC(=O)[C@H](O)C/C=C\C[C@@H]1O[C@@H]2/C=C/C/C=C/C(C)=C\[C@H]3O[C@@H](C/C=C/C=C/C(=O)O[C@H](C2)[C@@]1(C)COC(=O)CCCCCCCCCCC)C[C@H](O)[C@H]3C)C(O)CC(C)C (stereo partly specified) [LASONOLIDE G]
# output < 5.22

# input Another: CCOC(=O)[C@H](O)C/C=C\C[C@@H]1O[C@@H]2/C=C/C/C=C/C(C)=C\[C@H]3O[C@@H](C/C=C/C=C/C(=O)O[C@H](C2)[C@@]1(C)CO)C[C@H](O)[C@H]3C [LASONOLIDE E]
# output < 5.10

Below: the item to evaluate.
# input Param item = C=C(COC(=O)[C@H](O)C/C=C\C[C@@H]1O[C@@H]2/C=C/C/C=C/C(C)=C\[C@H]3O[C@@H](C/C=C/C=C/C(=O)O[C@H](C2)[C@@]1(C)CO)C[C@H](O)[C@H]3C)C(O)CC(C)C (stereo partly specified) [LASONOLIDE C] ; retrieve measured pIC50.
# output 5.95

###

Tested on: A549
Assay: Cytotoxicity against human A549 cells
Format: functional, cell-based
outcome.measure: pIC50
One number for each entry, as −log10 of the molar value.

Reference set, count: 3
# input State the recorded pIC50 for this entry: C=C(CCC(C)C)COC(=O)[C@H](O)C/C=C\C[C@@H]1O[C@@H]2/C=C/C/C=C/C(C)=C\[C@H]3O[C@@H](C/C=C/C=C/C(=O)O[C@H](C2)[C@@]1(C)CO)C[C@H](O)[C@H]3C [LASONOLIDE A]
# output 8.07

# input Repeat with CC1=C/[C@H]2O[C@@H](C/C=C/C=C/C(=O)O[C@@H]3C[C@@H](/C=C/C\C=C\1)O[C@@H](C/C=C\CCO)[C@]3(C)CO)C[C@H](O)[C@H]2C [LASONOLIDE D]
# output 5.35

# input Try this molecule next: CCOC(=O)[C@H](O)C/C=C\C[C@@H]1O[C@@H]2/C=C/C/C=C/C(C)=C\[C@H]3O[C@@H](C/C=C/C=C/C(=O)O[C@H](C2)[C@@]1(C)CO)C[C@H](O)[C@H]3C [LASONOLIDE E]
# output 6.51

Moving on to another molecule below.
# input molecule: C=C(COC(=O)[C@H](O)C/C=C\C[C@@H]1O[C@@H]2/C=C/C/C=C/C(C)=C\[C@H]3O[C@@H](C/C=C/C=C/C(=O)O[C@H](C2)[C@@]1(C)CO)C[C@H](O)[C@H]3C)C(O)CC(C)C (stereo partly specified) [LASONOLIDE C] ; wanted: its pIC50
# output 6.89
